The measurements presented in this section are drawn from patent US20260327243A1.

- TGT: KRAS^G12C (Homo sapiens, UniProt P01116, C118A/G12C)
- Sequence (P01116 1-169 isoform P01116-2 G12C/C118A): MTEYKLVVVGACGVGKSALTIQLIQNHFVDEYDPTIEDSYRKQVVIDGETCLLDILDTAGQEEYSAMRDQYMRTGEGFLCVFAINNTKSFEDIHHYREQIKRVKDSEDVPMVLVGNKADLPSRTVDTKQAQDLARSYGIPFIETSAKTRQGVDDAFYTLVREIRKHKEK
- PROTOCOL NOTES: Coupled Nucleotide Exchange Assay
- CONDITION: GDP-bound KRAS (aa 1-169) G12C/C118A; 2 h compound pre-incubation; SOS-mediated exchange, 30 min; cRAF binding (AlphaLISA)
- Protocol: The KRAS^G12C coupled nucleotide exchange assay allows for the screening and profiling of KRAS^G12C antagonists/inhibitors by monitoring the binding of an effector protein (e.g., a Ras binding domain of Raf1, RBD-cRaf) to KRAS^G12C. […] The assay plates were then read on a plate reader measuring luminescence signal. Signal intensity of compound-containing wells were normalized to DMSO control, and data were analyzed using a 4-parameter logistic model to calculate IC50 values.
pIC50: −log10 of the molar value.
EXPERIMENTAL ENDPOINT: pIC50

Recorded results for 5 compounds are shown here.
Task: Which pIC50 reading was recorded for the compound C=CC(=O)N1CCN(C2CN(c3cc(N4CCC5(CC4)OC(C)C=C5C)nc(C(F)(F)F)c3C#N)C2)CC1 (centres unmarked) [Compound 3-053] ?
Output: 6.72

Task: Query C=CC(=O)N1CCN(C2CN(c3cc(N4CCC5(CC4)COc4ccccc45)nc(C(F)(F)F)n3)C2)CC1 [Compound 3-018] next
Output: 5.70

Task: Query C=CC(=O)N1CCN([C@@H]2CN(c3cc(N4CCC5(CC4)OC(C)(C)c4nccc(C)c45)nc(C(F)F)n3)[C@@H]2C)CC1 [Compound 3-096] next
Output: 7.16

Task: Query C=CC(=O)N1CCN([C@@H]2CN(c3cc(N4CC[C@]5(C[C@H]4C)OCCn4ncc(C)c45)nc(C(F)F)n3)[C@@H]2C)CC1 [Compound 3-078] next
Output: 7.05

Task: Query C=CC(=O)N1CCN(C2CN(c3cc(N4CCC5(CC4)COc4ccccc45)nc(C(F)(F)F)c3C#N)C2)CC1 [Compound 3-015] next
Output: 6.17

I: C=CC(=O)N1CCN(C2CN(c3cc(N4CCC5(CC4)OCC4CC45)nc(C(F)(F)F)c3C#N)C2)CC1 (centres unmarked) [Compound 3-042]
II: C=CC(=O)N1CCN([C@@H]2CN(c3cc(N4CCC5(CC4)OC[C@H](C)n4ncc(C)c45)nc(C(F)(F)F)n3)[C@@H]2C)CC1 [Compound 3-101]
III: C=CC(=O)N1CCN(C2CN(c3cc(N4C5CCC4CC4(CCCO4)C5)nc(C(F)F)c3C)C2)CC1 (centres unmarked) [Compound 3-071]
Task: Sort (3 compounds) by pIC50: min first. Write out the labels following the order that was asked for.
Output: I, III, II

1: C=CC(=O)N1CCN([C@@H]2CN(c3cc(N4CCC5(CC4)OC(C)(C)c4nccc(C)c45)nc(C(F)(F)F)n3)[C@@H]2C)CC1 [Compound 3-095]
2: C=CC(=O)N1CCN([C@@H]2CN(c3cc(N4CCC5(CC4)OCCC=C5C)nc(C(F)F)n3)[C@@H]2C)CC1 [Compound 3-009]
Task: Hi there, can you help? I need to know whether 1 or 2 has lower measured pIC50. Identify your selection by its label.
Output: 2
(2: 6.05, 1: 7.51)

1: C=CC(=O)N1CCN([C@@H]2CN(c3cc(N4CCC5(CC4)OCC(COC)n4ncc(C)c45)nc(C(F)(F)F)n3)[C@@H]2C)CC1 (some centres unmarked) [Compound 3-082]
2: C=CC(=O)N1CCN(C2CN(c3cc(N4CCC5(CCCO5)[C@@H](CO)C4)nc(C(F)(F)F)c3C#N)C2)CC1 (some centres unmarked) [Compound 3-062-2]
Task: Hi there, can you help? I need to know whether 1 or 2 has lower measured pIC50. Identify your selection by its label.
Output: 2
(2: 5.21, 1: 7.16)

----------
- TGT: KRAS^G12C (Homo sapiens, UniProt P01116, C118A/G12C)
- PROTOCOL NOTES: Coupled Nucleotide Exchange Assay
- CONDITION: GDP-bound KRAS (aa 1-169) G12C/C118A; 2 h compound pre-incubation; SOS-mediated exchange, 30 min; cRAF binding (AlphaLISA)
pIC50: −log10 of the molar value.
EXPERIMENTAL ENDPOINT: pIC50

Task: Which pIC50 reading was recorded for the molecule C=CC(=O)N1CCN([C@@H]2CN(c3cc(N4CC[C@]5(C[C@H]4C)OCCc4ncsc45)nc(C(F)(F)F)n3)[C@@H]2C)CC1 (single isomer, unassigned) ?
Output: 7.27

P: C=CC(=O)N1CCN(C2CN(c3cc(N4CCC5(CC4)CC(C#N)CO5)nc(C(F)(F)F)c3C#N)C2)CC1 (stereo not drawn)
Q: C=CC(=O)N1CCN([C@@H]2CN(c3cc(N4CC[C@]5(C[C@H]4C)OC4(COC4)c4nccc(C)c45)nc(C(F)(F)F)n3)[C@@H]2C)CC1
Task: Could you please tell me which of these two has the higher pIC50: P or Q ? Identify your selection by its label.
Output: Q

----------
- TGT: KRAS^G12C (Homo sapiens, UniProt P01116, C118A/G12C)
- PROTOCOL NOTES: Coupled Nucleotide Exchange Assay
- CONDITION: GDP-bound KRAS (aa 1-169) G12C/C118A; 2 h compound pre-incubation; SOS-mediated exchange, 30 min; cRAF binding (AlphaLISA)
EXPERIMENTAL ENDPOINT: IC50 (nM)

Recorded results for 5 compounds are shown here.
Task: Which IC50 reading was recorded for the compound C=CC(=O)N1CCN([C@@H]2CN(c3cc(N4CCC5(CC4)OC4(COC4)c4nccc(C)c45)nc(C(F)F)n3)[C@@H]2C)CC1 [Compound 3-103] ?
Output: 36

Task: Query C=CC(=O)N1CCN([C@@H]2CN(c3cc(N4CCC5(CC4)OCCn4ncc(C)c45)nc(C(F)(F)F)n3)[C@@H]2C)CC1 [Compound 3-076] next
Output: 72

Task: Query C=CC(=O)N1CCN(C2CN(c3cc(N4CCC5(CC4)OCc4ncsc45)nc(C(F)(F)F)c3C#N)C2)CC1 [Compound 3-046] next
Output: 253

Task: Query C=CC(=O)N1CCN(C2CN(c3cc(N4CCC5(CC4)OCCc4ncsc45)nc(C(F)F)c3C)C2)CC1 [Compound 3-069] next
Output: 830

Task: Query C=CC(=O)N1CCN([C@@H]2CN(c3cc(N4CCC5(CC4)OC4(COC4)c4nccc(C)c45)nc(C(F)(F)F)n3)[C@@H]2C)CC1 [Compound 3-102] next
Output: 23

I: C=CC(=O)N1CCN([C@@H]2CN(c3cc(N4CC[C@]5(C[C@H]4C)OC[C@H](COC)n4ncc(C)c45)nc(C(F)(F)F)n3)[C@@H]2C)CC1 (single isomer, unassigned) [Compound 3-089-1]
II: C=CC(=O)N1CCN([C@@H]2CN(c3cc(N4CC[C@]5(C[C@H]4C)OC[C@H](CO)n4ncc(C)c45)nc(C(F)F)n3)[C@@H]2C)CC1 (single isomer, unassigned) [Compound 3-088-2]
Task: Hi there, can you help? I need to know whether I or II has lower measured IC50. Identify your selection by its label.
Output: I
(I: 42 nM, II: 72 nM)

a: C=CC(=O)N1CCN([C@@H]2CN(c3cc(N4CCC5(CC4)OC[C@@H](COC)n4ncc(C)c45)nc(C(F)(F)F)n3)[C@@H]2C)CC1 [Compound 3-097]
b: C=CC(=O)N1CCN([C@@H]2CN(c3cc(N4CCC5(CC4)OCC=C5C)nc(C(F)(F)F)n3)[C@@H]2C)CC1 [Compound 3-061]
Task: Could you please tell me which of these two has the higher IC50: a or b ? Identify your selection by its label.
Output: b

----------
- TGT: KRAS^G12C (Homo sapiens, UniProt P01116, C118A/G12C)
- PROTOCOL NOTES: Coupled Nucleotide Exchange Assay
- CONDITION: GDP-bound KRAS (aa 1-169) G12C/C118A; 2 h compound pre-incubation; SOS-mediated exchange, 30 min; cRAF binding (AlphaLISA)
pIC50: −log10 of the molar value.
EXPERIMENTAL ENDPOINT: pIC50

P: C=CC(=O)N1CCN([C@@H]2CN(c3cc(N4CCC5(CC4)COc4nccc(C)c45)nc(C(F)F)n3)[C@@H]2C)CC1 [Compound 3-086]
Q: C=CC(=O)N1CCN(C2CN(c3cc(N4CCC5(CC4)CC5(F)F)nc(C(F)(F)F)c3C#N)C2)CC1 [Compound 3-036]
Task: Hi there, can you help? I need to know whether P or Q has lower measured pIC50. Identify your selection by its label.
Output: Q
(Q: 5.17, P: 5.54)

A: C=CC(=O)N1CCN(C2CN(c3cc(N4CCC5(CC4)OC(C)C=C5C)nc(C(F)(F)F)c3C#N)C2)CC1 (single isomer, unassigned) [Compound 3-054-2]
B: C=CC(=O)N1CCN(C2CN(c3cc(N4CCC5(CC4)c4ccccc4C(=O)N5C)nc(C(F)(F)F)c3C#N)C2)CC1 [Compound 3-004]
C: C=CC(=O)N1CCN(C2CN(c3cc(N4CCC5(CC4)OCCc4ccsc45)nc(C(F)(F)F)n3)C2)CC1 [Compound 3-064]
Task: Place the items in sequence of falling pIC50. Write out the labels following the order that was asked for.
Output: B, A, C
